Listed here: items and their measured pKd.
- assay.system: T1, extracellular domain of human BCMA (human, UniProt Q02223 1-54)
- T1 construct: amine-linked to Octet AR2G tips; also called hsBCMA; BCMA (human)
- T1 sequence: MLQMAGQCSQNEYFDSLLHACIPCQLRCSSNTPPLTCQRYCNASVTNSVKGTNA
- experimental.details: Octet BLI; Fab 200 nM
Please keep in mind that pKd is minus log10 of the molar concentration; only the number is needed.

Past entries and their recorded results:
AB200-R1H32-R2Vk5 (Fab, V domains shown) VH: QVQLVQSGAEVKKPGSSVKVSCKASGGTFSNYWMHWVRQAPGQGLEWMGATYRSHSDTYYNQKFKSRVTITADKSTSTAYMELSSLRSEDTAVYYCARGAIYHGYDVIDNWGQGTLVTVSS VL: DIQMTQSPSSLSASVGDRVTITCRASQSISSYLNWYQQKPGKAPKLLIYATSNLQIGVPSRFSGSGSGTDFTLTISSLQPEDFATYYCQQFRKLPWSFGQGTKLEIKR: 9.05
AB200-R1H32-R2Vk38 (Fab, V domains shown) VH: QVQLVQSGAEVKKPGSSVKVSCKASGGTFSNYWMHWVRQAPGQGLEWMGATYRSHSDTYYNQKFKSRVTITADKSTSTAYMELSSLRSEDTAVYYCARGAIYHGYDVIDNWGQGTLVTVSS VL: DIQMTQSPSSLSASVGDRVTITCRASQSISSYINWYQQKPGKAPKLLIYATSNLQSGVPSRFSGSGSGTDFTLTISSLQPEDFATYYCQQFRKIPWTFGQGTKLEIKR: 8.94

Turning to the following binder.
Entry AB200-R1H32-R2Vk6 (Fab, V domains shown) VH: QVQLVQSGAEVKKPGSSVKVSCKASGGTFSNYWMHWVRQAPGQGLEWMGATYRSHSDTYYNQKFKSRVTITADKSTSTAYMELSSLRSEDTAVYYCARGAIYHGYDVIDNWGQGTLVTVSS VL: DIQMTQSPSSLSASVGDRVTITCRASQSISSYINWYQQKPGKAPKLLIYATSNLQSGVPSRFSGSGSGTDFTLTISSLQPEDFATYYCQQFRKLPWSFGQGTKLEIKR , pKd reported as 8.91
